test system: biotinyl-Met-oxazolone; experiment: self-aminoacylation, catalytic enhancement (BMO) (fold over background); higher = more active; k-Seq, kA / k0A0; sequences stand for … in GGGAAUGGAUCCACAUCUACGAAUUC…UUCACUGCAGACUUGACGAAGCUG
Fewer inactive variants are shown than the library holds.
recorded.endpoint: self-aminoacylation
// no unit string in output, number only

For orientation, consider the following solved cases.
sequence | self-aminoacylation
CCACACGUCAUGCAAUCGGUC [Fam1B.1 aminoacylation ribozyme variant] | 1.26
AUUACCCUGGUCAUCGAGUCG [Fam2.1 aminoacylation ribozyme variant] | 0.797
CUACAAUUCAAGCAAUCGGUC [Fam1B.1 aminoacylation ribozyme variant] | 0.819

Exam item: Give self-aminoacylation for the following sequence: AUUCACCACGGUCAUCGGGUG [Fam2.2 aminoacylation ribozyme variant]
Marked response: 9.37

Exam item: Give self-aminoacylation for the following sequence: AUUCCCUUAGGUCAUCGGGUG [Fam2.2 aminoacylation ribozyme variant]
Marked response: 33.4

====

test system: biotinyl-Trp-oxazolone; assay: self-aminoacylation, catalytic enhancement (BWO) (fold over background); higher = more active; k-Seq, kA / k0A0; sequences stand for … in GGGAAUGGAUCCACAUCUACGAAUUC…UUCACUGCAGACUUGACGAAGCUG
Fewer inactive variants are shown than the library holds.
recorded.endpoint: self-aminoacylation
// no unit string in output, number only

sequence | self-aminoacylation
CCACACUUCAAGCAAUUGGCC [Fam1B.1 aminoacylation ribozyme variant] | 3.51
AUACACCUAGGUCAGCGGGUG [Fam2.2 aminoacylation ribozyme variant] | 3.08
UUUACCCUGGUCAUCGAGCGA [Fam2.1 aminoacylation ribozyme variant] | 3.52

Exam item: Give self-aminoacylation for the following sequence: CUAAUUCAAACAGUCGGUCUG [Fam1A.1 aminoacylation ribozyme variant]
Marked response: 0.523

Exam item: Give self-aminoacylation for the following sequence: CUACUUCUAACAGUCGGUCUG [Fam1A.1 aminoacylation ribozyme variant]
Marked response: 0.349

Exam item: Give self-aminoacylation for the following sequence: GAGUCUGCUAAUAGUCGCAAG [Fam3.1 aminoacylation ribozyme variant]
Marked response: 14

====

tested on: biotinyl-Phe-oxazolone; assay: self-aminoacylation, catalytic enhancement (BFO) (fold over background); higher = more active; k-Seq, kA / k0A0; sequences stand for … in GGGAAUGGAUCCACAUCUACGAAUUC…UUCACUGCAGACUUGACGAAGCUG
Variants at the floor of the assay were thinned out.
Outcome: TRUE for self-aminoacylation of at least 20; FALSE for anything lower.

Answered examples (5):
sequence | classification
CUUCUUCAAACAAUCGGUCCG [Fam1A.1 aminoacylation ribozyme variant] | FALSE
AUGCACCUAGGCCAUCGGGUG [Fam2.2 aminoacylation ribozyme variant] | TRUE
AUUCAGCUAGGUUAUCGGGUG [Fam2.2 aminoacylation ribozyme variant] | TRUE
GCACACUUCAAGCAGUCGGUC [Fam1B.1 aminoacylation ribozyme variant] | FALSE
AAGUUUGCUAAUAGACACAAG [Fam3.1 aminoacylation ribozyme variant] | FALSE

Exam item: Hi, just wondering whether CCGCACUUCAAGCAAUCAGUC [Fam1B.1 aminoacylation ribozyme variant] shows self-aminoacylation of 20 or higher.
Marked response: FALSE

Exam item: Hi, just wondering whether AUUCACCUAGGUCAUCGGCUA [Fam2.2 aminoacylation ribozyme variant] shows self-aminoacylation of 20 or higher.
Marked response: FALSE

Exam item: Hi, just wondering whether CCAGACUUCAAGCAAUCCGUC [Fam1B.1 aminoacylation ribozyme variant] shows self-aminoacylation of 20 or higher.
Marked response: FALSE
